- Tested on: Oryza sativa
- Protocol details: Post-emergence phytotoxicity against Oryza sativa (rice) plants exposed to compound applied on surface of water 7 days after transplantation assessed as plant killing at 0.5 kg ai/ha measured 3 weeks after compound treatment under green house conditions
- Format: organism-based
- Conditions used: other, 504 h
Measured endpoint: Activity (%)
Give bare numbers, in %.

For every item in the list below, what is its measured Activity?
1. CC1COc2ccccc2N1C1=NC(=O)C(C)(C)S1 (configuration not stated)
2. CC1COc2ccccc2N1C1=NC(=O)C(C)(CCCl)S1 (configuration not stated)

Result:
1: 20; 2: 0

For every item in the list below, what is its measured Activity?
1. CCC1(CCCl)SC(N2c3ccccc3OCC2C)=NC1=O (configuration not stated)
2. CCN(CC)C(=O)n1cnc(S(=O)(=O)c2c(C)cc(C)cc2C)n1 [CAFENSTROLE]
3. CCC1(CC)SC(N2c3ccccc3OCC2C)=NC1=O (configuration not stated)
4. CCC1(CCl)SC(N2c3ccccc3OCC2C)=NC1=O (configuration not stated)
5. CCC1(C)SC(N2c3ccccc3OCC2C)=NC1=O (configuration not stated)

Result:
1: 0; 2: 20; 3: 0; 4: 20; 5: 0

Recorded values, source ChEMBL document CHEMBL3045680.
